Assignment: determine reported GI50 for the given compounds.
Tested on: TK-10
assay: NCI tumour cell line growth inhibition, 48 h
The source made the active and inactive calls. Cut-off read from the data, not from the text of the source: active = GI50 up to about 1.1 µM and inactive = higher.

### Prompt Record request: GI50 value, item `C1COCCN1.S=C(S)N1CCOCC1`
### Response > 100 µM (inactive)

### Prompt Then CCCCCCCCCCCCC(O)C1CCC(C(O)CCCCC(O)CCCCCC2CC(CC(C)=O)C(=O)O2)O1 (configuration not stated) ?
### Response 4.99 µM (inactive)

### Prompt Then `COc1ccccc1-c1cc(O)c2c(C)cc(C)nc2n1` ?
### Response > 100 µM (inactive)

### Prompt Then `CCN(CC)CC(C)(C)C(=O)/C=C/c1ccc(C)cc1` ?
### Response 14.5 µM (inactive)

### Prompt Then `COC(=O)c1ccccc1/C=C1\Cc2c(C)cc(C)cc2C1=O` ?
### Response > 100 µM (inactive)

### Prompt Then CC(=O)NC(CCCOC(C)=O)C(=O)NC(CCCOC(C)=O)C(=O)NC(CCCOC(C)=O)C(=O)NC(Cc1ccc([N+](=O)[O-])cc1)C(=O)NCC(=O)OCc1ccccc1 (configuration not stated) ?
### Response > 100 µM (inactive)

### Prompt Then Cc1cccc2c1Sc1ccccc1C2NC(=O)CN(C)C (configuration not stated) ?
### Response > 100 µM (inactive)

### Prompt Then `O=C(NCCNCCNC(=O)c1cc(-c2ccccc2)nc2ccccc12)c1cc(-c2ccccc2)nc2ccccc12` ?
### Response 2.4 µM (inactive)

### Prompt Then Cc1ccccc1NC(=O)CC(=O)N1N=C(N2c3ccccc3Sc3ccccc32)CC1c1ccccc1 (configuration not stated) ?
### Response > 100 µM (inactive)

### Prompt Then `CN(c1nc(=[N+](C)C)ss1)C1CCCCC1` ?
### Response > 100 µM (inactive)

### Prompt Then CC1CCCCc2nc3c(c(=O)n21)CCCC3 (configuration not stated) ?
### Response > 100 µM (inactive)

### Prompt Then COC1/C=C/C(C)C(C(C)C(OC)C(C)CCC(=O)C(C)C(C/C=C/N(C)C=O)OC)OC(=O)C=CC2OC2(C)CC(OC)C(OC)C2=CC(=O)O[C@@H](C(C)C(OC)CC(OC)/C=C/C(C)C(O)C1)[C@H]2O (some centres not stated) ?
### Response 0.0119 µM (active)

### Prompt Then `Cc1cccc2c(N)c3cccc(C(=O)NCC[N+](C)(C)Cc4ccccc4[N+](=O)[O-])c3nc12` ?
### Response 6.62 µM (inactive)

### Prompt Then `Brc1sc(Br)c2c1[C@H](Br)C[C@@H]2Br` ?
### Response > 100 µM (inactive)

### Prompt Then `[O-][n+]1ccccc1S` ?
### Response 10.1 µM (inactive)

### Prompt Then `Nc1c2ccccc2nc2ccc(C(=O)Nc3ccc(S(N)(=O)=O)cc3)cc12` ?
### Response > 100 µM (inactive)

### Prompt Then `C(=N\c1ccc2c(c1)Cc1ccccc1-2)/c1ccccn1` ?
### Response 42.7 µM (inactive)

### Prompt Then Cc1ccc(S(=O)(=O)N/N=C2/C3CCC(C3)C2c2ccccc2)cc1 (configuration not stated) ?
### Response > 100 µM (inactive)

### Prompt Then `Cc1ccc(C2=C(c3ccccc3)C(Br)(c3ccc(C)cc3)C(c3ccccc3)=C2c2ccc(C)cc2)cc1` ?
### Response > 100 µM (inactive)

### Prompt Then CC(C)CC(NC(=O)C(O)C(N)Cc1ccccc1)C(=O)O (configuration not stated) ?
### Response > 100 µM (inactive)

### Prompt Then `CC(=O)Nc1ccc(S(=O)(=O)NN(C)S(=O)(=O)c2ccc(C)cc2)cc1` ?
### Response > 100 µM (inactive)

### Prompt Then `COc1ccn(CC(=O)c2cc3ccccc3[nH]2)c(=O)n1` ?
### Response > 100 µM (inactive)

### Prompt Then `CC(=N\N)/C(C)=N/N=C(C)/C(C)=N/N` ?
### Response > 100 µM (inactive)

### Prompt Then `CN(C)NC1=NS(=O)(=O)c2cc3c(cc2S1)N(N(C)C)C(=O)c1cc2c(cc1N(N(C)C)C3=O)SC(NN(C)C)=NS2(=O)=O` ?
### Response > 10 µM (inactive)

### Prompt Then CC(=O)OC[C@]1(O)CC[C@@]23CC1C[C@@H]2CCC1C(C)(C)CCC[C@@]13C (some centres not stated) ?
### Response 13.4 µM (inactive)

### Prompt Then `C=CCn1c(=S)sc2c(O)ncnc21` ?
### Response > 100 µM (inactive)

### Prompt Then CCCCN1C(=O)C2Cc3c([nH]c4ccccc34)C(c3cccc(O)c3)N2C1=O (configuration not stated) ?
### Response 18.3 µM (inactive)

### Prompt Then CC1(C)c2ccccc2C(C)(C)C(C(=O)Nc2ccccc2)C1C(=O)O (configuration not stated) ?
### Response > 100 µM (inactive)

### Prompt Then Cc1cc(C)c(N[S+]([O-])c2cccc([N+](=O)[O-])c2)c(C)c1 (configuration not stated) ?
### Response > 100 µM (inactive)

### Prompt Then `CC(=S)N/C=C1/C(=O)C=C(C)OC1=O` ?
### Response > 100 µM (inactive)

### Prompt Then NC(=O)CCC(Nc1c2ccccc2nc2ccccc12)C(=O)O (configuration not stated) ?
### Response > 100 µM (inactive)

### Prompt Then `CN1COCc2c1ccc1cc3ccc4c(c3nc21)COCN4S(C)(=O)=O` ?
### Response > 100 µM (inactive)

### Prompt Then Cc1c(CNc2ccc(C(=O)NC(CCCNC(=O)c3ccccc3C(=O)O)C(=O)O)cc2)cnc2nc(N)nc(N)c12 (configuration not stated) ?
### Response 1.79 µM (inactive)

### Prompt Then CCOC(=O)C1(Cc2ccccc2)Cc2cc3c(cc2C1=O)CCC3 (configuration not stated) ?
### Response > 100 µM (inactive)

### Prompt Then `CCCCCCCCCCCCCCCCCC[N+](C)(C)Cc1ccc(C[N+](C)(C)CCCCCCCCCCCCCCCCCC)cc1` ?
### Response 13.6 µM (inactive)

### Prompt Then `CN(C)CCCCN1c2ccccc2Sc2ccc(N=[N+]=[N-])cc21` ?
### Response 12.1 µM (inactive)

### Prompt Then `CC[C@@]1(O)C(=O)OCc2c1cc1n(c2=O)Cc2c-1nc1ccccc1c2/C=N\NC(=O)C(N)=O` ?
### Response 43.6 µM (inactive)
